assay-target: Activated CDC42 kinase 1 (Homo sapiens, UniProt Q07912)
Sequence (Q07912 whole entry, the tested form may be a part): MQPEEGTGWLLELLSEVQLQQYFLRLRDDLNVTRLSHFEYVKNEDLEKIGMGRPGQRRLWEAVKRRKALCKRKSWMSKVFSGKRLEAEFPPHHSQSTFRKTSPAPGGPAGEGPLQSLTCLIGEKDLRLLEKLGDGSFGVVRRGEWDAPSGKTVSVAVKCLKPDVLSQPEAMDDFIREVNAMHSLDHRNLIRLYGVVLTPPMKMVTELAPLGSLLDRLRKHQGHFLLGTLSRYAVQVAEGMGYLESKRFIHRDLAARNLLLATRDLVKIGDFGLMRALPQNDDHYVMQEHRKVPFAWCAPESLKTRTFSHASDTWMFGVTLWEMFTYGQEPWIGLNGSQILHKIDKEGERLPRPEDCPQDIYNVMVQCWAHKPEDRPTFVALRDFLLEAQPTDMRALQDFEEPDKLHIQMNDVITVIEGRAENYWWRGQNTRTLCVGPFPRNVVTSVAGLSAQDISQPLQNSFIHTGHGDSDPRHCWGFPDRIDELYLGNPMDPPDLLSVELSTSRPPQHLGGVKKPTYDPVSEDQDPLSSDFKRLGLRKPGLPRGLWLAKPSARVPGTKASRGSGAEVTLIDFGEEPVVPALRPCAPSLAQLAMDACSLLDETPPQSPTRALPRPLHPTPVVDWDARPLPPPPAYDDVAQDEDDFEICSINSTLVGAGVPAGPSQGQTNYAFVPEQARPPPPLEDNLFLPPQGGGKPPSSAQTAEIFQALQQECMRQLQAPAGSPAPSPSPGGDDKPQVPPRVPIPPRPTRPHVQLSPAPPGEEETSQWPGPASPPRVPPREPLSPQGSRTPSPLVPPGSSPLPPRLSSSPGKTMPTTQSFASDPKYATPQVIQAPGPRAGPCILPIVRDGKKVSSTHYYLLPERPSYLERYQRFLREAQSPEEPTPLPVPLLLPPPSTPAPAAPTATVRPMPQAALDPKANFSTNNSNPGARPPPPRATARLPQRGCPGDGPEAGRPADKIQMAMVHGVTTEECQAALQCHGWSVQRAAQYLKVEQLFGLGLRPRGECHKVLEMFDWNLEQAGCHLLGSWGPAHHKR
procedure-details: Inhibition of histidine-tagged ACK1 (amino acids 117 to 489) expressed in SF9 cells
pKi: −log10 of the molar value.

compound-structure: COC(C)(C)CCn1nc(Nc2c(C)cc(F)cc2C)c2cnc(Nc3ccc(N4CCN(C)CC4)cc3)nc21
reading-qualifier: =
pKi: 8.00

compound-structure: CN(C)C(=O)Cn1nc(Nc2c(Cl)cccc2Cl)c2cnc(Nc3ccccc3)nc21
reading-qualifier: =
pKi: 7.52

compound-structure: ON1CCN(CCn2nc(Nc3c(Cl)cccc3Cl)c3cnc(Nc4ccccc4)nc32)CC1
reading-qualifier: =
pKi: 7.30

compound-structure: COC(C)(C)CCn1nc(Nc2c(C)cccc2C)c2cnc(Nc3ccccc3)nc21
reading-qualifier: =
pKi: 8.52

compound-structure: COC(C)(C)CCn1nc(Nc2c(C)cccc2C)c2cnc(Nc3ccc(OCCN4CCCC4)c(F)c3)nc21
reading-qualifier: =
pKi: 8.52

compound-structure: CCN(CC)CCCn1nc(Nc2c(C)cccc2C)c2cnc(Nc3ccccc3)nc21
reading-qualifier: =
pKi: 7.40

compound-structure: COC(C)(C)CCn1nc(Nc2c(C)cc(F)cc2C)c2cnc(Nc3ccccc3)nc21
reading-qualifier: =
pKi: 7.59

compound-structure: Cc1cccc(C)c1Nc1nn(CCCN2CCCC2)c2nc(Nc3ccccc3)ncc12
reading-qualifier: =
pKi: 7.00

compound-structure: CN1CCN(CCn2nc(Nc3c(Cl)cccc3Cl)c3cnc(Nc4ccccc4)nc32)CC1
reading-qualifier: =
pKi: 8.00

compound-structure: CCOc1ccccc1Oc1nc(Nc2ccc(N3CCNCC3)cc2)ncc1C(=O)Nc1c(C)cccc1C
reading-qualifier: =
pKi: 7.70

compound-structure: O=C(Cn1nc(Nc2c(Cl)cccc2Cl)c2cnc(Nc3ccccc3)nc21)N1CCOCC1
reading-qualifier: =
pKi: 7.15

compound-structure: COC(C)(C)CCn1nc(Nc2ccccc2)c2cnc(Nc3ccccc3)nc21
reading-qualifier: <
pKi: 5.40

compound-structure: CN(C)CCn1nc(Nc2c(Cl)cccc2Cl)c2cnc(Nc3ccccc3)nc21
reading-qualifier: =
pKi: 8.30

compound-structure: OC[C@H]1CCCN1CCn1nc(Nc2c(Cl)cccc2Cl)c2cnc(Nc3ccccc3)nc21
reading-qualifier: =
pKi: 7.52

compound-structure: COC(C)(C)CCn1nc(Nc2c(C)cccc2C)c2cnc(Nc3ccc(N4CCN(C)CC4)cc3)nc21
reading-qualifier: =
pKi: 8.70

compound-structure: CN(C)[C@@H]1CCN(CCn2nc(Nc3c(Cl)cccc3Cl)c3cnc(Nc4ccccc4)nc32)C1
reading-qualifier: =
pKi: 8.00

compound-structure: Cc1cccc(C)c1Nc1nn(CCCN(C)C)c2nc(Nc3ccccc3)ncc12
reading-qualifier: =
pKi: 7.52

compound-structure: Cc1cccc(C)c1Nc1nn(CC[C@@H](O)CN(C)C)c2nc(Nc3ccccc3)ncc12
reading-qualifier: =
pKi: 7.10

compound-structure: COC(C)(C)CCn1nc(Nc2c(C)cc(C)cc2C)c2cnc(Nc3ccc(N4CCN(C)CC4)cc3)nc21
reading-qualifier: =
pKi: 7.92

compound-structure: COC(C)(C)CCn1nc(Nc2c(C)cc(C)cc2C)c2cnc(Nc3ccccc3)nc21
reading-qualifier: <
pKi: 5.60

compound-structure: COC(C)(C)CCn1nc(Nc2c(Cl)cccc2Cl)c2cnc(Nc3ccccc3)nc21
reading-qualifier: =
pKi: 8.15

###

procedure-details: Clearance in Sprague-Dawley rat at 0.5 mg/kg, iv
Format: ADME, organism-based
Parameters: dose 0.5 mg/kg, route intravenous
run-parameters: in vivo

compound-structure: COC(C)(C)CCn1nc(Nc2c(C)cccc2C)c2cnc(Nc3ccc(OCCCN4CCCCC4)c(F)c3)nc21
clearance / mL/min/kg: 58.3
//
compound-structure: COC(C)(C)CCn1nc(Nc2c(Cl)cccc2Cl)c2cnc(Nc3ccc(N4CCNCC4)cc3)nc21
clearance / mL/min/kg: 70
//
compound-structure: COC(C)(C)CCn1nc(Nc2c(C)cccc2C)c2cnc(Nc3ccc(N4CCNCC4)cc3)nc21
clearance / mL/min/kg: 95
//
compound-structure: COC(C)(C)CCn1nc(Nc2c(Cl)cccc2Cl)c2cnc(Nc3ccc(OCCN4CCCC4)c(F)c3)nc21
clearance / mL/min/kg: 48.3

###

The compounds listed here are annotated with their MRT.
procedure-details: Mean residence time in Sprague-Dawley rat at 0.5 mg/kg, iv
Format: ADME, organism-based
Design: dose 0.5 mg/kg, route intravenous
run-parameters: in vivo

compound-structure: COC(C)(C)CCn1nc(Nc2c(Cl)cccc2Cl)c2cnc(Nc3ccc(N4CCNCC4)cc3)nc21
MRT / h: 3.6
--
compound-structure: COC(C)(C)CCn1nc(Nc2c(C)cccc2C)c2cnc(Nc3ccc(N4CCNCC4)cc3)nc21
MRT / h: 3.5
--
compound-structure: COC(C)(C)CCn1nc(Nc2c(Cl)cccc2Cl)c2cnc(Nc3ccc(OCCN4CCCC4)c(F)c3)nc21
MRT / h: 2.7
--
compound-structure: COC(C)(C)CCn1nc(Nc2c(C)cccc2C)c2cnc(Nc3ccc(OCCCN4CCCCC4)c(F)c3)nc21
MRT / h: 2

###

procedure-details: AUC in Sprague-Dawley rat at 0.4 mg/kg, iv
Type: ADME, organism-based
Parameters: dose 0.4 mg/kg, route intravenous
run-parameters: plasma
measurement-name: AUC

compound-structure: CCOc1ccccc1Oc1nc(Nc2ccc(N3CCNCC3)cc2)ncc1C(=O)Nc1c(C)cccc1C
result: 76 ng·h/mL

###

assay-target: Vascular endothelial growth factor receptor 2 (Homo sapiens, UniProt P35968)
Sequence (P35968 whole entry): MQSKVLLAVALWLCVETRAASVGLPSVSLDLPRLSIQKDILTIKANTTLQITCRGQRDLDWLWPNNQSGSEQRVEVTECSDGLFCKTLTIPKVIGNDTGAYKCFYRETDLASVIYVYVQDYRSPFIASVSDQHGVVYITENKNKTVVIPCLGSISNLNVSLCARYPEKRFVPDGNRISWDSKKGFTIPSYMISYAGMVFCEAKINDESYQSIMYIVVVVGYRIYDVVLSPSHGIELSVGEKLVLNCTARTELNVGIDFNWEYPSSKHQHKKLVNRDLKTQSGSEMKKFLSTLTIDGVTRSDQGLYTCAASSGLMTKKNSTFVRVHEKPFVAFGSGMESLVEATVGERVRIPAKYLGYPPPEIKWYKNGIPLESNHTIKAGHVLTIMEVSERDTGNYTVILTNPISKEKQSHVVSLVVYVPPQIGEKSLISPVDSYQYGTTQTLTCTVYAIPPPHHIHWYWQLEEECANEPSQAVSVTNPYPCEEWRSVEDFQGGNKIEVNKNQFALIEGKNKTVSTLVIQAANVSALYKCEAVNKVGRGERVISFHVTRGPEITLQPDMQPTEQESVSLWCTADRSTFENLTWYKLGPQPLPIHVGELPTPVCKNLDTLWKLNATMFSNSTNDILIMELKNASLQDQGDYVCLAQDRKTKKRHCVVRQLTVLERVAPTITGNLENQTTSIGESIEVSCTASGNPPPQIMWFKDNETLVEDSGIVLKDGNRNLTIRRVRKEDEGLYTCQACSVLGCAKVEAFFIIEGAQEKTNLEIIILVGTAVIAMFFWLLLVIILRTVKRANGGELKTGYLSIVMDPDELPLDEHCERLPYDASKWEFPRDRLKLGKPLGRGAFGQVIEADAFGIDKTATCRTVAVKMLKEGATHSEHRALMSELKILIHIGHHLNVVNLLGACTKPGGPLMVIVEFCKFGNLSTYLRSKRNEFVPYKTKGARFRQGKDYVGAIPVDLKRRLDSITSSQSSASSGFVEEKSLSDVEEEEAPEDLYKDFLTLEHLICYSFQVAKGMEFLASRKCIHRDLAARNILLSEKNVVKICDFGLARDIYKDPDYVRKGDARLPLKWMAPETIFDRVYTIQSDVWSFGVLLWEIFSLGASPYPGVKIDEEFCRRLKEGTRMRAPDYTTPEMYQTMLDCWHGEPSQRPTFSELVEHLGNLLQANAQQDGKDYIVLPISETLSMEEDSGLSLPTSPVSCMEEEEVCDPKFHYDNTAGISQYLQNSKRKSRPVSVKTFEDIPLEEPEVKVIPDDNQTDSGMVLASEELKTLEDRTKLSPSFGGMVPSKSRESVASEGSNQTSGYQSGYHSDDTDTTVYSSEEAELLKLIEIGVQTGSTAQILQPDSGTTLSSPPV
measurement-name: Ki (nM)

compound-structure: CCOc1ccccc1Oc1nc(Nc2ccc(N3CCNCC3)cc2)ncc1C(=O)Nc1c(C)cccc1C
measurement-name: Ki
units-of-measure: nM
reading-qualifier: >
result-number: 25000

compound-structure: COC(C)(C)CCn1nc(Nc2c(C)cccc2C)c2cnc(Nc3ccc(OCCN4CCCC4)cc3)nc21
measurement-name: Ki
units-of-measure: nM
reading-qualifier: =
result-number: 1590

###

assay-target: Angiopoietin-1 receptor (Homo sapiens, UniProt Q02763)
Sequence (Q02763 whole entry): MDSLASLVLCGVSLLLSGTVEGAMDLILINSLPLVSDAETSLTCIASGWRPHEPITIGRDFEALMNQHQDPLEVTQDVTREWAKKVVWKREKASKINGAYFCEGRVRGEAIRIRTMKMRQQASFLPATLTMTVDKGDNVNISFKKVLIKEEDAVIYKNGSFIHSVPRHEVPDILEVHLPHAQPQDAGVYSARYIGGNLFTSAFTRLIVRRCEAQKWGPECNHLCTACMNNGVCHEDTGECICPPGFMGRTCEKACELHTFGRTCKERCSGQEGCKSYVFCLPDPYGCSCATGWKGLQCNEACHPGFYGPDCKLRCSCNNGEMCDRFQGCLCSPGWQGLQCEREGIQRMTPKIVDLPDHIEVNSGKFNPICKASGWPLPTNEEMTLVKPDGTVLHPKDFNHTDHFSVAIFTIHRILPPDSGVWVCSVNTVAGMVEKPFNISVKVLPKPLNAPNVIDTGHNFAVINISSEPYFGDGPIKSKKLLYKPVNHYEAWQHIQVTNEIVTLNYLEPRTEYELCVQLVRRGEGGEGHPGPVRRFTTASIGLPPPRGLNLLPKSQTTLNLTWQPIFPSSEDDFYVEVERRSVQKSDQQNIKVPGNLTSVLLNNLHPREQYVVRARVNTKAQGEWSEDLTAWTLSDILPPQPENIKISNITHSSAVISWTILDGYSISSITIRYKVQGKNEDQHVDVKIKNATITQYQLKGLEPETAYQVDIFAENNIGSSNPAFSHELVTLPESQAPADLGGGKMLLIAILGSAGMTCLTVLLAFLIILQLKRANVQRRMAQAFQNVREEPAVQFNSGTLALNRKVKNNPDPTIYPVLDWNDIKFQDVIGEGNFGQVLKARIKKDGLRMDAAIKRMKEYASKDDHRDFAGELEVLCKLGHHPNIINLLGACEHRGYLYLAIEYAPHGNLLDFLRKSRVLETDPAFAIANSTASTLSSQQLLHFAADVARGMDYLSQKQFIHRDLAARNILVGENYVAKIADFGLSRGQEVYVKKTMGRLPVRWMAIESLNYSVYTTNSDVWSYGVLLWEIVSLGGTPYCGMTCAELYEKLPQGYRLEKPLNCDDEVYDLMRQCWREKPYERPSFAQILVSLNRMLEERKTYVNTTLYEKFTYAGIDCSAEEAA
The molecules listed here are annotated with their Ki.

compound-structure: COC(C)(C)CCn1nc(Nc2c(C)cccc2C)c2cnc(Nc3ccc(OCCN4CCCC4)cc3)nc21
units-of-measure: nM
reading-qualifier: =
Ki: 1160
//
compound-structure: CCOc1ccccc1Oc1nc(Nc2ccc(N3CCNCC3)cc2)ncc1C(=O)Nc1c(C)cccc1C
units-of-measure: nM
reading-qualifier: >
Ki: 8300

###

procedure-details: Oral bioavailability in Sprague-Dawley rat at 4 mg/kg
Format: ADME, organism-based
run-parameters: in vivo
measurement-name: bioavailability (%)

compound-structure: OC[C@H](O)CCn1nc(Nc2c(Cl)cccc2Cl)c2cnc(Nc3ccccc3)nc21
result-number: 30

###

assay-target: Activated CDC42 kinase 1 (Homo sapiens, UniProt Q07912)
procedure-details: Inhibition of histidine-tagged ACK1 (amino acids 117 to 489) expressed in SF9 cells
pKi: −log10 of the molar value.
Give 1.0 when the value for pKi is at least 8. Give 0.0 when it is less.

compound-structure: Cc1cccc(C)c1Nc1nn(CC[C@@H](O)CO)c2nc(Nc3ccccc3)ncc12
group-label: 0.0
//
compound-structure: COC(C)(C)CCn1nc(Nc2c(C)cccc2C)c2cnc(Nc3ccc(OCCCN4CCCCC4)c(F)c3)nc21
group-label: 1.0
//
compound-structure: CN(C)CCCn1nc(Nc2c(Cl)cccc2Cl)c2cnc(Nc3ccccc3)nc21
group-label: 1.0
//
compound-structure: COC(C)(C)CCn1nc(Nc2ccccc2)c2cnc(Nc3ccc(N4CCN(C)CC4)cc3)nc21
group-label: 0.0
//
compound-structure: COC(C)(C)CCn1nc(Nc2c(Cl)cccc2Cl)c2cnc(Nc3ccc(OCCN4CCCC4)c(F)c3)nc21
group-label: 1.0
//
compound-structure: COC(C)(C)CCn1nc(Nc2c(C)cccc2C)c2cnc(Nc3ccc(OCCN4CCCC4)cc3)nc21
group-label: 1.0
//
compound-structure: Cc1cccc(C)c1Nc1nn(CCN2CCOCC2)c2nc(Nc3ccccc3)ncc12
group-label: 0.0

###

assay-target: UniProt P52333
Sequence (P52333 whole entry): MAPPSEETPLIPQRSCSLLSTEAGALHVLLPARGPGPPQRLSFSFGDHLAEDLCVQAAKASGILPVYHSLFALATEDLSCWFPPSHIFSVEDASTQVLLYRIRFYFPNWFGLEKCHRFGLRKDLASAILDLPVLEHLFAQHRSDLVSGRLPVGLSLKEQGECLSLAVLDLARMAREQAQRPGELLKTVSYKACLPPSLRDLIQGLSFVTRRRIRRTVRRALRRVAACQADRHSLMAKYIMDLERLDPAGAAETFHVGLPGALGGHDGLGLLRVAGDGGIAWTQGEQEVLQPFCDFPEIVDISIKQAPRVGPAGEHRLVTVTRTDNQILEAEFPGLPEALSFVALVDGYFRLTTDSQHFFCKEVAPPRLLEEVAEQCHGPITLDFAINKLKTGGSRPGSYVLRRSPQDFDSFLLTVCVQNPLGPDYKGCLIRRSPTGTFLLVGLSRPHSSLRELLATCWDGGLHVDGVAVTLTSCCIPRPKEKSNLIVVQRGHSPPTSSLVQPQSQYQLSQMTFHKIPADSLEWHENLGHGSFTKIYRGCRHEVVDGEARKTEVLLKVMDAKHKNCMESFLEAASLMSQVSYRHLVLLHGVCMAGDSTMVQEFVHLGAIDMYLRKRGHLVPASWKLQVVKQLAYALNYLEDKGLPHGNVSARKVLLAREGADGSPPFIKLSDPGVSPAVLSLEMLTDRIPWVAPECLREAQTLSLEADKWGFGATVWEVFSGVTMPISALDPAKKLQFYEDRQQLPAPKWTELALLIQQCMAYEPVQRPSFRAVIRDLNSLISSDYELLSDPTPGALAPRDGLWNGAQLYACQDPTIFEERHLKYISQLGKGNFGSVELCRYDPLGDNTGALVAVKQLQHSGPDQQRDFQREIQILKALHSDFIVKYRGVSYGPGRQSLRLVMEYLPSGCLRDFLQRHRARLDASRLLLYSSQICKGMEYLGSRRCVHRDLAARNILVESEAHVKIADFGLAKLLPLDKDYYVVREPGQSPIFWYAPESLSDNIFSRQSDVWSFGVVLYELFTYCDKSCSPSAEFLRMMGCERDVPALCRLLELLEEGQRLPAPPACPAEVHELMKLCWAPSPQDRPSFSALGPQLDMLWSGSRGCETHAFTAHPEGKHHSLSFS
pKi: −log10 of the molar value.
measurement-name: pKi

compound-structure: COC(C)(C)CCn1nc(Nc2c(C)cccc2C)c2cnc(Nc3ccc(OCCN4CCCC4)c(F)c3)nc21
reading-qualifier: <
result-number: 4.90

compound-structure: CCOc1ccccc1Oc1nc(Nc2ccc(N3CCNCC3)cc2)ncc1C(=O)Nc1c(C)cccc1C
reading-qualifier: =
result-number: 7.13

compound-structure: COC(C)(C)CCn1nc(Nc2c(C)cccc2C)c2cnc(Nc3ccc(OCCN4CCCC4)cc3)nc21
reading-qualifier: =
result-number: 6.77
